Test system: HCT-15 colon
Experiment: NCI-60 one-dose screen, 48 h (100 = growth as untreated, 0 = no growth, -100 = all killed)
Conditions: 10 µM unless noted
The panel holds about 83,000 compounds, 20% with a hit somewhere; the sample as a whole holds those more often. The source made the active and inactive calls. How the source made its calls: active means growth percent below 10; inactive means the rest.
test_readout: growth

Some solved cases for reference:
# compound, test_readout, value_reported
rows = [
    ("C[C@@H]1COCCN1c1cc(C2([S@](C)(=N)=O)CC2)nc(-c2ccnc3[nH]ccc23)n1", "growth", "31.7% (inactive)"),
    ("CN(C[C@@H]1COCCO1)S(=O)(=O)Nc1ccc2ccc3ncc(-c4cnn(C)c4)cc3c(=O)c2c1", "growth", "26% (inactive)"),
    ("Brc1ccc([I+]c2ccc(Br)cc2)cc1", "growth", "49.3% (inactive)"),
    ("CC[C@H](Nc1ncnc2nc[nH]c12)c1nc2cccc(F)c2c(=O)n1-c1ccccc1", "growth", "88.9% (inactive)"),
    ("NS(=O)(=O)c1ccc(CCN2C(=O)/C(=C\\c3ccc(Cl)cc3)C=C2c2ccc3ccccc3c2)cc1", "growth", "94.9% (inactive)"),
    ("CCCCCCCCCCCC[n+]1ccccc1", "growth", "39.4% (inactive)"),
    ("CN[C@@H]1C[C@H]2O[C@@](C)([C@@H]1OC)n1c3ccccc3c3c4c(c5c6ccccc6n2c5c31)C(=O)N[C@H]4O", "growth", "-16.8% (active)"),
    ("ClCc1ccc(-c2ccc(Cn3cnc4c(Cl)nc(Cl)nc43)cc2)cc1", "growth", "-44.3% (active)"),
]

The compound O=C1OCC2=C1C(c1cccc(F)c1)c1cc3c(cc1N2CCO)OCCO3 (configuration not stated) , tested on HCT-15 colon, showed growth of 9.75% (active)

The compound C#Cc1cccc(Nc2ncnc3cc(OC)c(OCCCCCCC(=O)NO)cc23)c1 , tested on HCT-15 colon, showed growth of 7.16% (active)

The compound O=C1NC(=O)/C(=C/c2ccc3nccc(-c4ccncc4)c3c2)S1 , tested on HCT-15 colon, showed growth of -19.5% (active)

The compound Cc1cc2c(-c3nc4ccccn4c3NC34CC5CC(CC(C5)C3)C4)c(O)c(O)cc2c(O)c1-c1c(C)cc2c(-c3nc4ccccn4c3NC34CC5CC(CC(C5)C3)C4)c(O)c(O)cc2c1O , tested on HCT-15 colon, showed growth of 20% (inactive)

The compound Nc1nc(N)c2nc(-c3cccc(O)c3)c(-c3cccc(O)c3)nc2n1 , tested on HCT-15 colon, showed growth of 92% (inactive)

The compound CCCCn1c(C)nc2cc(Nc3nc(N4CCCCC4)nc4nc[nH]c34)ccc21 , tested on HCT-15 colon, showed growth of 52.9% (inactive)

The compound Cc1cc(N(CCNc2ccnc3cc(Cl)ccc23)Cc2ccc3c(c2)OCO3)nc(N2CCN(C)CC2)n1 , tested on HCT-15 colon, showed growth of 0.627% (active)

The compound c1cn2cc(-c3ccc4cn[nH]c4c3)nc(Nc3ccc(N4CCOCC4)cc3)c2n1 , tested on HCT-15 colon, showed growth of 66.5% (inactive)

The compound Cc1ccsc1C(NC(=O)c1ccccc1)c1cc(Cl)c2cccnc2c1O (configuration not stated) , tested on HCT-15 colon, showed growth of 13.4% (inactive)

The compound COC(=O)c1[nH]cnc1/N=N/N(C)CCO , tested on HCT-15 colon, showed growth of 109% (inactive)

The compound CC1(O)CC(c2nc(-c3ccc4ccc(-c5ccccc5)nc4c3)c3c(N)nccn23)C1 (configuration not stated) , tested on HCT-15 colon, showed growth of 21.1% (inactive)

The compound COc1cc2ncnc(Nc3cccc(Cl)c3F)c2cc1OC(=O)N1CCN(C)C[C@H]1C , tested on HCT-15 colon, showed growth of 75.1% (inactive)

The compound COc1cc(NCCCN)c2ncccc2c1 , tested on HCT-15 colon, showed growth of 100% (inactive)

The compound c1ccc2c(c1)CCN(NCCN1CCCC1)C2 , tested on HCT-15 colon, showed growth of 105% (inactive)

The compound CC(C)[C@@H]1CC[C@@H]2[C@@H]1[C@H](OC(=O)/C=C/c1ccccc1)[C@]1(C(C)C)C[C@@H](OC(=O)CO)[C@@]2(C)O1 , tested on HCT-15 colon, showed growth of 78% (inactive)

The compound Cc1[nH]n(C(N)=S)c(=O)c1N=Nc1ccc(S(=O)(=O)Nc2ccncn2)cc1 , tested on HCT-15 colon, showed growth of 113% (inactive)
